Molecular target: β2-AR control (–) sensor
Experiment: [3H]-DHA saturation binding (KD)
Conditions: control sensor membranes
measured-metric: Kd

# compound, measured-metric, reported-value
measured = [
    ("CCCc1ccccc1OCC(O)CNC(C)C (stereo not shown) [[^3H]-DHA, [^3H]-dihydroalprenolol]", "Kd", "~0.2 nM"),
]

====

Biological target: β2-AR-Gs sensor
Test: [3H]-DHA saturation binding (KD)
Settings: β2-AR-Gs sensor membranes
Protocol: Radio-ligand assays followed the previously published protocol. […]; PerkinElmer) for 90 min at room temperature in Tris-Buffered-Saline (TBS) pH 7.4. Samples were transferred to GF/C membranes pre-treated with 0.3% PEI solution in TBS, washed extensively with cold TBS, and dried over night at room temperature. […] Each experiment was done at least twice with different membrane preparations, with three separate samples prepared per condition, per experiment.
measured-metric: Kd

# compound, reported-value
data = [
    ("CCCc1ccccc1OCC(O)CNC(C)C (stereo not shown) [[^3H]-DHA, [^3H]-dihydroalprenolol]", "~0.2 nM"),
]
